Value source: BindingDB's records for doi:10.7270/Q2NV9GP9

Each entry below carries its recorded pEC50.
# assayed-target: Apelin receptor (Homo sapiens)
# Sequence (P35414 whole entry): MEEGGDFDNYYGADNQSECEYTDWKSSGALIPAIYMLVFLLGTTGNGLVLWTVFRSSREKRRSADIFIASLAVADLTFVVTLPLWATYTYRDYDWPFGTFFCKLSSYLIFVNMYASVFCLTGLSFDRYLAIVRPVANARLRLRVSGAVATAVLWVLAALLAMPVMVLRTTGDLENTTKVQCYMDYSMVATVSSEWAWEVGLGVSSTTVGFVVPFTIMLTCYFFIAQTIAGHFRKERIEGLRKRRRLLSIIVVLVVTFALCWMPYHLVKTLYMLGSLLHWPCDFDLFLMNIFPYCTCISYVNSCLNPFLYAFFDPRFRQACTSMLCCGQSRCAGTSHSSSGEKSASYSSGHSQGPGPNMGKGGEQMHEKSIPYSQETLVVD
# measurement-notes: APJ agonists inducing beta-arrestin recruitment, dose response, cell-based, luminescence, uHTS hits (AID 488748)
pEC50: −log10 of the molar value.

Guide cases for pEC50, answers given:
* COc1cc2c(cc1NC(=O)c1cc(-c3cccnc3)nc3ccc(C)cc13)oc1ccccc12 | < 4.00
* O=c1oc2cc(OCc3ccc([N+](=O)[O-])cc3)ccc2c2c1CCCC2 [SMR000176214] | < 4.00
* CCSc1nc(O)c(CC)c(=O)n1C(C)CC (configuration not stated) [SMR000103074] | < 4.00
* CCC(C)NC(=O)CSC1=Nc2ccccc2C2=NC(CC(=O)NCc3ccc(F)cc3)C(=O)N12 (configuration not stated) | < 4.00
* CN(C)CCCN(C(=O)c1ccc(S(=O)(=O)N2CCc3ccccc3C2)cc1)c1nc2ccc(F)cc2s1 [SMR000807789] | < 4.00
* CSc1cccc(NC(=S)NC(=O)CCc2ccccc2)c1 | < 4.00
* CCCSc1nc(O)c(CC)c(=O)n1C(C)CC (configuration not stated) | 4.24
* CC1CCN(S(=O)(=O)c2ccc3nc(-c4ccccn4)cc(C(=O)NCCN(C)Cc4ccccc4)c3c2)CC1 [MLS000682486] | < 4.00
* CCC(c1nnnn1Cc1ccccc1)N(Cc1cc2cc(OC)ccc2[nH]c1=O)CC1CCCO1 (configuration not stated) | < 4.00
* CCOc1cccc2sc(N(CCCN(C)C)C(=O)c3ccc(S(=O)(=O)N4CCc5ccccc5C4)cc3)nc12 | < 4.00

Entry COc1ccc(OC)c2sc(N(CCCN(C)C)C(=O)c3ccc(S(=O)(=O)N4CCc5ccccc5C4)cc3)nc12 [MLS001239200] has what pEC50? < 4.00

Also `CCOC(=O)N1CCN(S(=O)(=O)c2ccc(C(=O)N(CCCN(C)C)c3nc4ccc(Cl)cc4s3)cc2)CC1` ? < 4.00

Ok, now Cc1cccc2sc(N(CCCN(C)C)C(=O)c3ccc(S(=O)(=O)N4CCc5ccccc5C4)cc3)nc12 [SMR000807812] < 4.00

Same question, CC(C)(C)OC(=O)NCCCCCc1cn([C@@H](CO)C(=O)NCCCCCCCCCCC(=O)N2CCN(C(=O)OC(C)(C)C)CC2)nn1 [Boc-KS] this time < 4.00

Moving on to `Cc1cc(C)c2nc(NNC(=O)c3ccc(S(=O)(=O)N4CCc5ccccc5C4)cc3)sc2c1` < 4.00

Also COc1cc(NC(=S)NC(=O)CCc2ccccc2)cc(OC)c1 [SMR000668635] ? < 4.00

Also `CCCCCCC1=Cc2c/c(=C3/NN=C(c4cc(OC)c(OC)c(OC)c4)O3)c(=O)oc2=CC1=O` ? < 4.00

* * *

# assayed-target: Apelin receptor (Homo sapiens, UniProt P35414)
# Sequence (P35414 whole entry): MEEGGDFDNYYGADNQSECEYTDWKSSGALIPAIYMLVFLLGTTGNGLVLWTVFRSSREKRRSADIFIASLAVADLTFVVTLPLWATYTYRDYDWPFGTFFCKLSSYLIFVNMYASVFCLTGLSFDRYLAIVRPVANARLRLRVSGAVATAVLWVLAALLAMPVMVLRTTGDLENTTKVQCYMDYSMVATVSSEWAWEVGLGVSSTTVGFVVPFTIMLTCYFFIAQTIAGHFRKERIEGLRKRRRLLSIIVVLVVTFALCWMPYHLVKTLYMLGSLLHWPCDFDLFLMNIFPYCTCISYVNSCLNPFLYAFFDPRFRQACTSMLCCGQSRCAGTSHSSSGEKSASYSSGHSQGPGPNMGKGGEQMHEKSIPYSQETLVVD
# measurement-notes: APJ agonists inducing beta-arrestin recruitment, dose response, cell-based, luminescence, uHTS hits (AID 488748)
# setup-conditions: inactive by the depositor's call
endpoint-label: EC50 (µM)

(A) CCc1nnc(NC(=O)CSc2nc3cccnc3n2C2CCCCC2)s1
(B) Cc1cc(C)n2nc3nc(N4CCCCC4)nc(-c4ccco4)c3c2n1
Could you kindly indicate whether A or B has the higher EC50 value? Provide the label of your selected option as the answer. B
(B: 96.6 µM, A: 45.9 µM)
